assay: qHTS assay for small molecule agonists of the antioxidant response element (ARE) signaling pathway measured by Nrf2-dependant transcriptional activity - cell viability counter screen (AID 720653); conditions: ARE-bla HepG2 viability, CellTiter-Glo ATP luminescence, 16 h; stronger effect = lower value; further: on the % scale 0 is the no-effect control and ±100 the full control effect
Inconclusive results are not listed.
reported.endpoint: max response (%)
Record the value in %, omitting the unit from your answer.

Worked cases, answers included:
INSERT INTO assay_data (compound, measured) VALUES
  ('CCOP(=O)(O)C(N)=O', -6.84),
  ('Cc1ccc(O)cc1C', -2.94);

Recorded result, CCOP(=S)(OCC)SCC(=O)NC(C)C , max response: 2

The reported value for O=[N+]([O-])c1ccc(Oc2ccc(Cl)cc2Cl)cc1 in terms of max response is -3.33

Lookup result for Clc1ccc([C@@]2(Cn3cncn3)C[C@@H](Br)CO2)c(Cl)c1 ; measured max response: 2.35

Measured max response of COP(=O)(OC)O/C(C)=C/C(=O)N(C)C : 15.8

Lab note: C=CC(=O)OCC(CO)(COC(=O)C=C)COC(=O)C=C gave max response of -24.9

For CCOC(=O)C(C)OC(=O)c1cc(Oc2ccc(C(F)(F)F)cc2Cl)ccc1[N+](=O)[O-] (centres undefined) the compound record lists max response as -9.47

* * *

test: S16 Schwann cell PMP22 intronic element beta-lactamase assay (AID 624044); conditions: S16 rat Schwann cells, PMP22 element beta-lactamase FRET, 24 h; further: nearly all actives have a fitted effect of over 15% in size
Inconclusive results are not listed. Calls of active or inactive are those of the source. Calls come from the whole dose curve.
One label from this list, please: 1 (active), 0 (inactive)

As a guide, the following entries are already answered.
INSERT INTO assay_data (compound, cat) VALUES
  ('NC(C(=O)O)[C@@H]1CC(Cl)=NO1 (some centres not stated)', 1),
  ('C[C@H](CCCC(C)(C)O)[C@H]1CC[C@H]2[C@@H]3CC=C4C[C@@H](O)CC[C@]4(C)[C@H]3CC[C@]12C', 0),
  ('CNC1=CN(O)C(c2ccccc2)=c2cc(Cl)ccc2=N1', 0),
  ('CCCCCCC(=O)O[C@H]1CC[C@H]2[C@@H]3CCC4CC(=O)C=C(C)[C@]4(C)[C@H]3CC[C@]12C (some centres not stated)', 0),
  ('CC1CC[C@@]2(NC1)OC1CC3C4CC[C@@H]5CC(O)CC[C@@]5(C)C4CC[C@]3(C)C1C2C (some centres not stated)', 0),
  ('OCC(O)[C@H]1O[C@@H]2O[C@H](C(Cl)(Cl)Cl)O[C@@H]2[C@H]1O (some centres not stated)', 0),
  ('CC(=O)[C@H]1CC[C@H]2C3CC[C@H]4C[C@H](O)CC[C@]4(C)C3CC[C@]12C (some centres not stated)', 0),
  ('NC(Cc1ccc(Oc2cc(I)c(O)c(I)c2)c(I)c1)C(=O)O (configuration not stated)', 0),
  ('CN1C2CCC1C(C(=O)O)C(OC(=O)c1ccccc1)C2 (configuration not stated)', 0),
  ('CC(C)=O', 0);

## Task Please state the recorded outcome for this compound: CC1(C)[C@@H](C=C(Cl)Cl)[C@@H]1C(=O)OCc1c(F)c(F)cc(F)c1F
## Result 0

## Task For this compound, state the assay outcome: O=[N+]([O-])OC1CO[C@H]2C(O[N+](=O)[O-])COC12 (some centres not stated)
## Result 0

* * *

biological target: Glucocorticoid receptor (Homo sapiens) (UniProt P04150); assay: qHTS assay for small molecule agonists of glucocorticoid receptor signaling (AID 588532); conditions: HeLa MMTV-bla, beta-lactamase ratio, agonist, 18 h; stronger effect = higher value, percent of dexamethasone control, DMSO zero;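 further: 100% = dexamethasone at 0.1 µM and 0% = DMSO only wells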
Sequence (P04150 whole entry, looked up): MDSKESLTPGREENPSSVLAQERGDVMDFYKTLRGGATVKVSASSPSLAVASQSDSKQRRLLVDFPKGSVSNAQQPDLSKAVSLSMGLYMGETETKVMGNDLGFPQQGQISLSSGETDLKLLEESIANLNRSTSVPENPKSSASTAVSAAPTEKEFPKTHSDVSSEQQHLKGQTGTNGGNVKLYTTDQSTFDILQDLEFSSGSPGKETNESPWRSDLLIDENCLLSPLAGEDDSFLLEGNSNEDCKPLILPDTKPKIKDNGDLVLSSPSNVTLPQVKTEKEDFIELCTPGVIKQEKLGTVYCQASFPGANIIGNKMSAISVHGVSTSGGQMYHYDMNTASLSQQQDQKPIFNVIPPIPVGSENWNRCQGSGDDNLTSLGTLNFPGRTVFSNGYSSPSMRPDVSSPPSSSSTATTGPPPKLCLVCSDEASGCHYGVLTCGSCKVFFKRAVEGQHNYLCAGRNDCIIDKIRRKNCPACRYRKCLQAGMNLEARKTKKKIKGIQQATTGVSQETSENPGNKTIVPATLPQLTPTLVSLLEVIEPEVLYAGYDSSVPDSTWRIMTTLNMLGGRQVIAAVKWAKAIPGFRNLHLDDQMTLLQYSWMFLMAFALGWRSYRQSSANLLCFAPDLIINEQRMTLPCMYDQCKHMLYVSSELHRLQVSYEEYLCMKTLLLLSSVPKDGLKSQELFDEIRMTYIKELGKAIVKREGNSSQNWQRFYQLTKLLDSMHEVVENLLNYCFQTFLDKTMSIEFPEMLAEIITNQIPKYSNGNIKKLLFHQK
Inconclusive results are not listed.
The following molecules are listed with their measured activation values.
Note: unit % is implicit; provide only the numeric part.

Solved entries (count: 5):
INSERT INTO assay_data (molecule, measured) VALUES
  ('COP(=S)(OC)Oc1nc(Cl)c(Cl)cc1Cl', 1.34),
  ('CNC(=S)S', -6.24),
  ('CCSCCSP(=O)(OC)OC', 8.21),
  ('CC1=C(C(=O)Nc2ccccc2)SCCO1', -5.7),
  ('O=C(O)c1c(Cl)ccc2cc(Cl)cnc12', 3.46);

Form: molecule = Nc1c(Cl)c(F)nc(OCC(=O)O)c1Cl ; activation = -4.31

Per the record, CCCOc1nn(C(=O)NS(=O)(=O)c2ccccc2C(=O)OC)c(=O)n1C has activation of -2.11

Record CNC(=O)Oc1cc(C)c(SC)c(C)c1 , field activation: 13.5

get_value(item= CS/C(C)=N/OC(=O)N(C)SN(C)C(=O)O/N=C(\C)SC , readout=activation) returns 10.5

Just so you know, measured activation for CCC[CH2][Sn]([Cl])([CH2]CCC)[CH2]CCC came out at -5.41

activation reported for this molecule CC(C)(C)[C@@H](O)/C(=C\c1ccc(Cl)cc1Cl)n1cncn1 : -11.9

Lab book: activation of CCOC(=O)COc1cc(-c2nn(C)c(OC(F)F)c2Cl)c(F)cc1Cl noted as -3.65

Recorded result, Clc1ccc([C@@]2(Cn3cncn3)C[C@H](Br)CO2)c(Cl)c1 , activation: 2.56

* * *

assay: qHTS Assay for Identification of Small Molecule Antagonists for Thrombopoietin (TPO) Signaling Pathway (AID 918); conditions: TPO-dependent cell signaling reporter, antagonist mode; further: potency means the concentration at half of the fitted maximal effect; nearly all actives have a fitted effect of over 60% in size
Records with an inconclusive call do not appear. Active and inactive are the calls of the source. The call rests on the fitted dose curve; in most records, active means well fitted inhibition curve with a large enough effect; inconclusive means small, poorly fitted or top-dose-only effect, or effect the other way, or another doubt; inactive means flat fitted curve, though single readings scatter.
reported.endpoint: Potency

Previously resolved entries follow.
INSERT INTO measurements (compound, reported_endpoint, measured) VALUES
  ('NC(N)=Nc1ccc2[nH]c3c(c2c1)C[C@]1(O)[C@@H]2Cc4ccc(O)c5c4[C@]1(CCN2CC1CC1)[C@H]3O5', 'Potency', '12.6 µM (active)'),
  ('C=CCN1CCc2cccc3c2[C@@H]1Cc1ccc(O)c(O)c1-3', 'Potency', '10 µM (active)'),
  ('CCCN1CCc2cccc3c2[C@@H]1Cc1ccc(O)c(O)c1-3', 'Potency', '12.6 µM (active)');

Potency measured on Ic1ccccc1CN[C@@H]1C2CCN(CC2)[C@H]1C(c1ccccc1)c1ccccc1 = 12.6 µM (active)

Potency reported for this compound COc1ccc2c(c1)CCC1C2CC[C@]2(C)[C@H](NCCCCCCN3C(=O)C=CC3=O)CC[C@@H]12 (stereo partly specified) : 2 µM (active)

Looking up C/C=C(\C)C(=O)O[C@@H]1C(C)=C2[C@H]([C@@H]1OC(=O)CCCCCCC)[C@@](C)(OC(C)=O)C[C@@H](OC(=O)CCC)[C@@]1(O)[C@H]2OC(=O)[C@]1(C)O , I see its Potency listed as 0.0501 µM (active)

* * *

target: Bile acid receptor (Homo sapiens) (UniProt Q96RI1); assay: qHTS assay for small molecule agonists of farnesoid X receptor signaling (AID 588527); details: HEK293T FXR-UAS-bla, beta-lactamase ratio, 16 h; stronger effect = higher value;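 further: series mostly up to about 77 µM; 0% = vehicle basal and 100% = reference agonist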
Sequence (Q96RI1 whole entry, looked up): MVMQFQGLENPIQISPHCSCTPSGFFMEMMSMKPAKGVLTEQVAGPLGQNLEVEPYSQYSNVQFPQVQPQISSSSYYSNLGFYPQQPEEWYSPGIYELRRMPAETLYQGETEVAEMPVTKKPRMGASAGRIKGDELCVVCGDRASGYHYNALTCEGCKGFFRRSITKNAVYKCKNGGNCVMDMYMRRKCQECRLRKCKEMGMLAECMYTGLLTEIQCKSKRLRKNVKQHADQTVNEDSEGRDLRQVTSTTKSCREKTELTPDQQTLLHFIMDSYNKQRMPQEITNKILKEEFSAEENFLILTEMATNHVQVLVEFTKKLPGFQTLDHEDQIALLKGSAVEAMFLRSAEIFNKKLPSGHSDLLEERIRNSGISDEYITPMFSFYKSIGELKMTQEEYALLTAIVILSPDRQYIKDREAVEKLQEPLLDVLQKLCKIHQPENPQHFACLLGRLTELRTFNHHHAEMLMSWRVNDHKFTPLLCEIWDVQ
Results filed as inconclusive are left out.
reported.endpoint: activation (%)
Just the number please, in %, no unit attached.

Consider the following illustrative entries.
INSERT INTO results (compound, measured) VALUES
  ('O=C1OC(O)C(C(Cl)Cl)=C1Cl (configuration not stated)', 16.6),
  ('CCC(C)=O', -0.657),
  ('O=[N+]([O-])c1cc(C(F)(F)F)cc([N+](=O)[O-])c1Cl', -1.74),
  ('O=S(=O)(O)c1cc(S(=O)(=O)O)c2c(N=Nc3ccccc3)c(O)ccc2c1', 2.46),
  ('O=S(=O)(c1ccc(O)cc1)c1ccc(O)cc1', -2.06);

Looking up CCCCCCCCCCCCCCCO , I see its activation listed as -2.39

Query CCC(C)c1cc([N+](=O)[O-])cc([N+](=O)[O-])c1O (configuration not stated) yields activation of 4.38

* * *

assay: qHTS assay for small molecule activators of the nuclear factor-kappa B (NF-kB) signaling pathway (AID 651749); details: NF-kB-bla ME-180 cells, beta-lactamase FRET ratio, 16 h; stronger effect = higher value; further: series mostly up to about 77 µM; % of control where 0% means no effect
Records with an inconclusive call do not appear.
reported.endpoint: activation (%)
Numeric only. Scale: %

Here's what some known entries look like.
INSERT INTO results (molecule, measured) VALUES
  ('CC(C)(C)C(=O)[C@@H](Oc1ccc(Cl)cc1)n1cncn1', -1.55),
  ('CC(C)C1(C)N=C(c2nc3ccccc3cc2C(=O)O)NC1=O (stereo not given)', -0.622),
  ('CCOc1ccc(C(C)(C)COCc2cccc(Oc3ccccc3)c2)cc1', 2.46),
  ('COC(C)(C)CCC[C@H](C)C/C=C/C(C)=C/C(=O)OC(C)C', 0.706),
  ('O=C(O)C1(O)c2ccccc2-c2ccc(Cl)cc21 (stereo not given)', 3.02),
  ('COc1nn(C(=O)NS(=O)(=O)c2ccccc2OC(F)(F)F)c(=O)n1C', -2.5),
  ('[CH3][Sn]([CH3])([Cl])[Cl]', 0.645),
  ('CCOP(=O)(SC(C)CC)SC(C)CC (stereo not given)', -1.37),
  ('Nc1nc(N)nc(N)n1', -1.8),
  ('Brc1c(Br)c(Br)c(Br)c(Br)c1Br', -0.808);

Recorded result, CCC(C)(CC)c1cc(NC(=O)c2c(OC)cccc2OC)on1 , activation: -0.691

Lookup result for CCC(C)(c1ccc(O)cc1)c1ccc(O)cc1 ; measured activation: -1.76

Note to self: activation recorded for CN(C)c1ccc(C(=O)c2ccc(N(C)C)cc2)cc1 was 1.06

Lab note: CC1(C)CCC(Cc2ccc(Cl)cc2)C1(O)Cn1cncn1 (stereo not given) gave activation of -0.913

# activation of CC(C)N(C(=O)COc1nnc(C(F)(F)F)s1)c1ccc(F)cc1 = -1.4

// field: activation; key: COP(=O)(OC)SCn1c(=O)oc2cc(Cl)cnc21 ; value = -1.51
